molecular target: SRC (Homo sapiens, UniProt P12931); construct: purchased Invitrogen; assay: In vitro kinase assay (Z′-LYTE); assay type: biochemical; settings: read-out: % of inhibition of the kinase compared to the control
Sequence (P12931 whole entry): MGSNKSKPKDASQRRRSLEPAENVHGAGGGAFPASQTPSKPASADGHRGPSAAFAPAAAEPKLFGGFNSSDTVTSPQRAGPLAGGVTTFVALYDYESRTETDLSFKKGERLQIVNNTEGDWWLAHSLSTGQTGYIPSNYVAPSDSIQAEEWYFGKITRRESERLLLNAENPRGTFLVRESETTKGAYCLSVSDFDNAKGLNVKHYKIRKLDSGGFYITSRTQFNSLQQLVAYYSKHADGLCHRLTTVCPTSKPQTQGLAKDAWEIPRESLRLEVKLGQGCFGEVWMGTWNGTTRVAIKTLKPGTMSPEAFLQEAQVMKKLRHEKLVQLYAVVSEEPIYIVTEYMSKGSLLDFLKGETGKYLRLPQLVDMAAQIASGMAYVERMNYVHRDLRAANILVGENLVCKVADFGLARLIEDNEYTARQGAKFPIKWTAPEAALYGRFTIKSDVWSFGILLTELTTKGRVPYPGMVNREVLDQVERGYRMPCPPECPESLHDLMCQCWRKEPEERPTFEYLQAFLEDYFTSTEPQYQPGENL
TEST_READOUT: inhibition at 0.1 µM

• COC(=O)c1cc2cc(NCc3cc(NC(=O)c4ccc(C)c(C(F)(F)F)c4)ccc3C)cnc2[nH]1 [OR0869] = ≥ 50%
• COC(=O)c1cc2cc(NCc3cc(NC(=O)c4ccc(CN5CCNCC5)c(C(F)(F)F)c4)ccc3C)cnc2[nH]1 [OR0613] = ≥ 50%
• COC(=O)c1cc2cc(NCc3cc(NC(=O)c4ccc(CN5CCN(C)CC5)c(C(F)(F)F)c4)ccc3C)cnc2[nH]1 [OR0512] = ≥ 50%
• COC(=O)c1cc2cc(NCc3cc(NC(=O)c4ccc(Cn5cnc(C)c5)c(C(F)(F)F)c4)ccc3C)cnc2[nH]1 [OR0639] = < 50%
• COC(=O)c1cc2cc(NCc3cc(NC(=O)c4cccc(Br)c4)ccc3C)cnc2[nH]1 [OR0608] = ≥ 50%

Prompt: Can you look up the measured inhibition at 0.1 µM of COC(=O)c1cc2cc(NCc3cc(NC(=O)c4ccc5[nH]nnc5c4)ccc3C)cnc2[nH]1 [OR0616] for me?
Completion: < 50%

Prompt: Can you look up the measured inhibition at 0.1 µM of COC(=O)c1cc2cc(NCc3cc(NC(=O)c4cncc(C(F)(F)F)c4)ccc3C)cnc2[nH]1 [OR0604] for me?
Completion: ≥ 50%

###

system: HUVEC; experiment: In vitro cell proliferation assay (MTT); assay type: cell-based; details: Homo sapiens, 72 h
pEC50: −log10 of the molar value.
TEST_READOUT: pEC50

The examples below pair each entry with its known result.
- COC(=O)c1cc2cc(NCc3cc(NC(=S)c4ccc(CN5CCN(C)CC5)c(C(F)(F)F)c4)ccc3C)cnc2[nH]1: ≤ 6.00
- COC(=O)c1cc2cc(NCc3cc(NC(=O)c4cccc(Br)c4)ccc3C)cnc2[nH]1: 6.00 to 7.00
- COC(=O)c1cc2cc(NCc3cc(NC(=O)c4ccc(CN5CCOCC5)c(C(F)(F)F)c4)ccc3C)cnc2[nH]1: ≥ 7.00
- COC(=O)c1cc2cc(NCc3cc(NC(=O)c4ccc(Cn5cnc(C)c5)c(C(F)(F)F)c4)ccc3C)cnc2[nH]1: 6.00 to 7.00
- COC(=O)c1cc2cc(NCc3cc(NC(=O)c4ccc(C)c(C(F)(F)F)c4)ccc3C)cnc2[nH]1: 6.00 to 7.00
- COC(=O)c1cc2cc(NCc3cc(NC(=O)Nc4cccnc4)ccc3C)cnc2[nH]1: 6.00 to 7.00

Prompt: Can you look up the measured pEC50 of `COC(=O)c1cc2cc(NCc3cc(NC(=S)Nc4cccc(C(F)(F)F)c4)ccc3C)cnc2[nH]1` for me?
Completion: ≤ 6.00

Prompt: Can you look up the measured pEC50 of `COC(=O)c1cc2cc(NCc3cc(NC(=O)c4ccc5[nH]nnc5c4)ccc3C)cnc2[nH]1` for me?
Completion: ≤ 6.00

Prompt: Can you look up the measured pEC50 of `CCCOC(=O)c1cc2cc(NCc3cc(NC(=O)c4ccc(CN5CCN(C)CC5)c(C(F)(F)F)c4)ccc3C)cnc2[nH]1` for me?
Completion: 6.00 to 7.00

Prompt: Can you look up the measured pEC50 of COC(=O)c1cc2cc(NCc3cc(NC(=O)C4CCC(C(F)(F)F)CC4)ccc3C)cnc2[nH]1 (stereo not drawn) for me?
Completion: 6.00 to 7.00

Prompt: Can you look up the measured pEC50 of `COC(=O)c1cc2cc(NCc3cc(NC(=O)c4ccc(CN5CCC(O)CC5)c(C(F)(F)F)c4)ccc3C)cnc2[nH]1` for me?
Completion: 6.00 to 7.00

###

target: PDGFRB (Homo sapiens); construct: purchased Invitrogen; test: In vitro kinase assay (Z′-LYTE); type: biochemical; conditions: read-out: % of inhibition of the kinase compared to the control
Sequence (P09619 33-1106): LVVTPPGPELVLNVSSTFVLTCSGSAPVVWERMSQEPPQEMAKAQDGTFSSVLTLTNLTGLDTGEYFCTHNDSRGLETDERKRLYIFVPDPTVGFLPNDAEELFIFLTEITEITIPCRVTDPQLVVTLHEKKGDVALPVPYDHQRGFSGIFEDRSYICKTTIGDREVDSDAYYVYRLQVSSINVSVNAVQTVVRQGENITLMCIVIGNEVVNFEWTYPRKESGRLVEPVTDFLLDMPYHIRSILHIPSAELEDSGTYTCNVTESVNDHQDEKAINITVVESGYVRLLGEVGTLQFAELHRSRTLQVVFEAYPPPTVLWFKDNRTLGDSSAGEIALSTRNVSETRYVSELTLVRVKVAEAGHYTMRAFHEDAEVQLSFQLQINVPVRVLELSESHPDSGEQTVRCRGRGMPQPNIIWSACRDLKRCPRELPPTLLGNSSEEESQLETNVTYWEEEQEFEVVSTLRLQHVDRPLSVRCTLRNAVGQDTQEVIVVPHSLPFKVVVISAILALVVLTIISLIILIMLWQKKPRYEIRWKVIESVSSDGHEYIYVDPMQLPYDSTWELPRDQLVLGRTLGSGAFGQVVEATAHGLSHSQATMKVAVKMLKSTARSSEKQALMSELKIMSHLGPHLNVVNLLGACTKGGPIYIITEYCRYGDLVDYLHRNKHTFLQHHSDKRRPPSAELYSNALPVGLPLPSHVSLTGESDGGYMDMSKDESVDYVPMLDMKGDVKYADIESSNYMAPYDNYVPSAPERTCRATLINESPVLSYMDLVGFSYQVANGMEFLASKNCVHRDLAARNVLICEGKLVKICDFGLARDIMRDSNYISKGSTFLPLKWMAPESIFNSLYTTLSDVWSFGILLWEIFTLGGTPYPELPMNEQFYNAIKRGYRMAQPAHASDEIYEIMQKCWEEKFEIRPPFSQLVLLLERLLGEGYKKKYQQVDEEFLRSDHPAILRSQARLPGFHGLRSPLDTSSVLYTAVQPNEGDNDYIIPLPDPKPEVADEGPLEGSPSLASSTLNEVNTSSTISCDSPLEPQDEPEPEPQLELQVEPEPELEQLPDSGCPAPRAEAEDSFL
TEST_READOUT: inhibition at 0.1 µM

The examples below pair each entry with its known result.
* COC(=O)c1cc2cc(NCc3cc(NC(=O)c4ccc(CN5CCNCC5)c(C(F)(F)F)c4)ccc3C)cnc2[nH]1 | < 50%
* COC(=O)c1cc2cc(NCc3cc(NC(=O)c4ccc(Cn5cnc(C)c5)c(C(F)(F)F)c4)ccc3C)cnc2[nH]1 | < 50%
* COC(=O)c1cc2cc(NCc3cc(NC(=O)Cc4ccccc4Br)ccc3C)cnc2[nH]1 | ≥ 50%

# ---- query compound ----
Prompt: Param readout= inhibition at 0.1 µM; system= PDGFRB (Homo sapiens); entry= `COC(=O)c1cc2cc(NCc3cc(NC(=O)c4ccc(CN5CCN(C)CC5)c(C(F)(F)F)c4)ccc3C)cnc2[nH]1` ; returns value.
Completion: ≥ 50%

###

Each entry below carries its recorded inhibition at 0.1 µM.
molecular target: PDGFRA (PDGFR alpha) (Homo sapiens, UniProt P16234); construct: purchased Invitrogen; experiment: In vitro kinase assay (Z′-LYTE); assay type: biochemical; settings: read-out: % of inhibition of the kinase compared to the control
Sequence (P16234 24-1089): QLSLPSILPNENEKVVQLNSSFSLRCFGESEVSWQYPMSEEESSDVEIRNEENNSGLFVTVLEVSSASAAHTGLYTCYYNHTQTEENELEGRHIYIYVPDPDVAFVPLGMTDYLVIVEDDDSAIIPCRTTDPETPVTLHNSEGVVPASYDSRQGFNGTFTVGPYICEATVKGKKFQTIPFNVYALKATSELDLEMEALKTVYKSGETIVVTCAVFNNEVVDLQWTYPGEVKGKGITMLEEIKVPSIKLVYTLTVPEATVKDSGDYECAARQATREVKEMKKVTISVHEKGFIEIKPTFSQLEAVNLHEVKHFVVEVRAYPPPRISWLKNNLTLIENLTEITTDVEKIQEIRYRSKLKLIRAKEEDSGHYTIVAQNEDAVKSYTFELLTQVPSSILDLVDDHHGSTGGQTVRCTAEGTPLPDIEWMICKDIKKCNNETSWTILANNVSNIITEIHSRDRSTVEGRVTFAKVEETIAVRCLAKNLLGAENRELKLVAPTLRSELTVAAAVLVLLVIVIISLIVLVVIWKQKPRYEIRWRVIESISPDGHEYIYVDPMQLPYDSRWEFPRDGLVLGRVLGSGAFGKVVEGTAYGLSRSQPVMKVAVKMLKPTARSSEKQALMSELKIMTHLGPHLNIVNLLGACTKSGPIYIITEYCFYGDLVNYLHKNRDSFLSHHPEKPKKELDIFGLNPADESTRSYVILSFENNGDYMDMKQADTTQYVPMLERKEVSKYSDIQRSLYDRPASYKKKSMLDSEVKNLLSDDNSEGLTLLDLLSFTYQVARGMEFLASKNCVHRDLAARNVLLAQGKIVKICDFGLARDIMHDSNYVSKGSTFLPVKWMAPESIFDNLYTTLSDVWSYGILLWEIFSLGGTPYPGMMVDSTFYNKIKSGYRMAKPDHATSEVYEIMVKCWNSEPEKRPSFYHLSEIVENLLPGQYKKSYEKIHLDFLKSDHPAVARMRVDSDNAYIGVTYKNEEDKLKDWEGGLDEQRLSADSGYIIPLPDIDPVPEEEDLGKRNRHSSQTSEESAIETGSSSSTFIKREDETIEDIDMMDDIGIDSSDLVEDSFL

The examples below pair each entry with its known result.
• COC(=O)c1cc2cc(NC(=O)c3cccc(CNC(=O)c4ccc(CN5CCN(C)CC5)c(C(F)(F)F)c4)c3)cnc2[nH]1 = < 50%
• COC(=O)c1cc2cc(NCc3cc(NS(=O)(=O)c4cccc(C(F)(F)F)c4)ccc3C)cnc2[nH]1 = < 50%
• COC(=O)c1cc2cc(NCc3cc(NC(=O)c4ccc5[nH]ccc5c4)ccc3C)cnc2[nH]1 = ≥ 50%
• COC(=O)c1cc2cc(NCc3cc(NC(=O)c4ccc(CNCCN5CCN(C)CC5)c(C(F)(F)F)c4)ccc3C)cnc2[nH]1 = ≥ 50%
• COC(=O)c1cc2cc(NCc3cc(NC(=O)c4cncc(C(F)(F)F)c4)ccc3C)cnc2[nH]1 = ≥ 50%
• COC(=O)c1cc2cc(NCc3cc(NC(=O)c4cccc(OC(F)(F)F)c4)ccc3C)cnc2[nH]1 = ≥ 50%
• COC(=O)c1cc2cc(NC(=O)c3cccc(CNC(=S)c4cccc(C(F)(F)F)c4)c3)cnc2[nH]1 = < 50%
• COC(=O)c1cc2cc(NC(=O)c3cc(NC(=S)c4cc(-n5cnc(C)c5)cc(C(F)(F)F)c4)ccc3C)cnc2[nH]1 = < 50%

Prompt: Can you look up the measured inhibition at 0.1 µM of `COC(=O)c1cc2cc(NCc3cc(NC(=O)c4cc(CN5CCN(C)CC5)cc(C(F)(F)F)c4)ccc3C)cnc2[nH]1` for me?
Completion: ≥ 50%

Prompt: Can you look up the measured inhibition at 0.1 µM of `COC(=O)c1cc2cc(NCc3cc(NC(=O)c4cccc(C)c4)ccc3C)cnc2[nH]1` for me?
Completion: ≥ 50%

Prompt: Can you look up the measured inhibition at 0.1 µM of `COC(=O)c1cc2cc(NCc3cccc(C(=O)Nc4cccnc4)c3)cnc2[nH]1` for me?
Completion: < 50%

Prompt: Can you look up the measured inhibition at 0.1 µM of `COC(=O)c1cc2cc(NCc3cc(NC(=O)Cc4cccc(C(F)(F)F)c4)ccc3C)cnc2[nH]1` for me?
Completion: ≥ 50%

Prompt: Can you look up the measured inhibition at 0.1 µM of `CCCOC(=O)c1cc2cc(NCc3cc(NC(=O)c4ccc(CN5CCN(C)CC5)c(C(F)(F)F)c4)ccc3C)cnc2[nH]1` for me?
Completion: < 50%

Prompt: Can you look up the measured inhibition at 0.1 µM of `COC(=O)c1cc2cc(NCc3cc(NC(=O)Nc4ccncc4)ccc3C)cnc2[nH]1` for me?
Completion: < 50%

Prompt: Can you look up the measured inhibition at 0.1 µM of `COC(=O)c1cc2cc(NCc3cccc(C(=O)NCc4cccc(C(F)(F)F)c4)c3)cnc2[nH]1` for me?
Completion: < 50%

Prompt: Can you look up the measured inhibition at 0.1 µM of `COC(=O)c1cc2cc(NCc3cccc(NC(=O)c4ccc(CN5CCN(C)CC5)c(C(F)(F)F)c4)c3)cnc2[nH]1` for me?
Completion: ≥ 50%

###

test system: HuH7; experiment: In vitro cell proliferation assay (MTT); assay type: cell-based; conditions: Homo sapiens, Huh-7, 72 h
pEC50: −log10 of the molar value.
TEST_READOUT: pEC50

The examples below pair each entry with its known result.
- COC(=O)c1cc2cc(NCc3cc(NC(=O)c4ccc(O)c(C(F)(F)F)c4)ccc3C)cnc2[nH]1 [OR0605]: 6.00 to 7.00
- COC(=O)c1cc2cc(NCc3cc(NC(=O)c4ccc(CN5CCNCC5)c(C(F)(F)F)c4)ccc3C)cnc2[nH]1 [OR0613]: 6.00 to 7.00
- CNC(=O)c1cc(Oc2ccc(NC(=O)Nc3ccc(Cl)c(C(F)(F)F)c3)cc2)ccn1 [Sorafenib, reference compound]: ≤ 6.00
- COC(=O)c1cc2cc(NCc3cc(NC(=O)c4ccc(CN5CCN(C)CC5)c(C(F)(F)F)c4)ccc3C)cnc2[nH]1 [OR0512]: ≥ 7.00
- COC(=O)c1cc2cc(NCc3cc(NC(=O)c4cncc(C(F)(F)F)c4)ccc3C)cnc2[nH]1 [OR0604]: 6.00 to 7.00

Prompt: Param readout= pEC50; system= HuH7; entry= COC(=O)c1cc2cc(NCc3cc(NC(=O)c4ccc(C)c(C(F)(F)F)c4)ccc3C)cnc2[nH]1 [OR0869] ; returns value.
Completion: 6.00 to 7.00

Prompt: Param readout= pEC50; system= HuH7; entry= COC(=O)c1cc2cc(NCc3cc(NC(=O)c4cncc(C)c4)ccc3C)cnc2[nH]1 [OR0867] ; returns value.
Completion: ≤ 6.00

Prompt: Param readout= pEC50; system= HuH7; entry= COC(=O)c1cc2cc(NC(=O)c3cc(NC(=O)c4ccc(CN5CCN(C)CC5)c(C(F)(F)F)c4)ccc3C)cnc2[nH]1 [OR0744] ; returns value.
Completion: 6.00 to 7.00

Prompt: Param readout= pEC50; system= HuH7; entry= COC(=O)c1cc2cc(NCc3cc(NC(=O)c4ccc(Cl)c(C(F)(F)F)c4)ccc3C)cnc2[nH]1 [OR0871] ; returns value.
Completion: 6.00 to 7.00
